Assay: Mouse body weight in the skin abscess infection model
Assay type: in vivo
Conditions: day 0 = 100, Day 4, replicate 3
No end group written: not given here.
Assign Mouse body weight, normalized to the weight at the beginning of the experiment to each entry below.
Answer with the value's number alone.

Please supply the value of reported Mouse body weight, normalized to the weight at the beginning of the experiment for the item FLGAIGNVLKSIL-NH2 [TV]
100

Please supply the value of reported Mouse body weight, normalized to the weight at the beginning of the experiment for the item FLPLIGRVLSGIL-NH2 [Temporin A, reference compound]
95

Please supply the value of reported Mouse body weight, normalized to the weight at the beginning of the experiment for the item FLPLLWRVASGVF-NH2 [VT]
95

Please supply the value of reported Mouse body weight, normalized to the weight at the beginning of the experiment for the item FLGALWNVAKSVF-NH2 [VmCT1, reference compound]
100

---

Test: Resistance to proteolytic degradation in fetal bovine serum
Format: in vitro ADME
Conditions: 25% fetal bovine serum in water, 37 °C, LC peak area, time 0 = 100; 2 h; replicate 2
No end group written: not given here.
Readout type: Peptide remaining
Answer with the value's number alone.

Please supply the value of reported Peptide remaining for the item FLGTLWGGAKGVF-NH2 [VP]
3.6

Please supply the value of reported Peptide remaining for the item FLGSLWRKAGTVF-NH2 [VD]
88.5

Please supply the value of reported Peptide remaining for the item FLGALWNVAKSVF-NH2 [VmCT1, reference compound]
13.9

Please supply the value of reported Peptide remaining for the item FLPLIGRVLSGIL-NH2 [Temporin A, reference compound]
0

Please supply the value of reported Peptide remaining for the item GLGALLNVIKSGL-NH2 [AV]
49.0

Please supply the value of reported Peptide remaining for the item GLLKRIKTLL-NH2 [Anoplin, reference compound]
14.0

Please supply the value of reported Peptide remaining for the item SLGALINVLKSGG-NH2 [DV]
0.0

Please supply the value of reported Peptide remaining for the item ILGTILGLLKGL-NH2 [Protonectin, reference compound]
0.0

Please supply the value of reported Peptide remaining for the item ILGAILNVLKSLG-NH2 [PV]
0

Please supply the value of reported Peptide remaining for the item FLPLLWRVASGVF-NH2 [VT]
0

Please supply the value of reported Peptide remaining for the item FLGAIGNVLKSIL-NH2 [TV]
0

---

Test: Resistance to proteolytic degradation in fetal bovine serum
Type: in vitro ADME
Details: fetal bovine serum, 25% in water, 25% fetal bovine serum in water, 37 °C, LC peak area, time 0 = 100; 1 h; replicate 1; read-out: Peptide remaining
No end group written: not given here.
Readout type: remaining at 1 h (%)
I only need the number, in %, no unit after it.

Please supply the value of reported remaining at 1 h for the item FLPLLWRVASGVF-NH2 [VT]
0

Please supply the value of reported remaining at 1 h for the item ILGTILGLLKGL-NH2 [Protonectin, reference compound]
0

Please supply the value of reported remaining at 1 h for the item SLLSLIRKLIT-NH2 [Decoralin, reference compound]
26

---

Test: Mouse body weight in the skin abscess infection model
Type: in vivo
Settings: day 0 = 100, Day 3, replicate 1
No end group written: not given here.
Readout type: Mouse body weight, normalized to the weight at the beginning of the experiment
Answer with the value's number alone.

Please supply the value of reported Mouse body weight, normalized to the weight at the beginning of the experiment for the item FLGALWNVAKSVF-NH2 [VmCT1, reference compound]
95

Please supply the value of reported Mouse body weight, normalized to the weight at the beginning of the experiment for the item FLGAIGNVLKSIL-NH2 [TV]
90

Please supply the value of reported Mouse body weight, normalized to the weight at the beginning of the experiment for the item FLPLLWRVASGVF-NH2 [VT]
90

Please supply the value of reported Mouse body weight, normalized to the weight at the beginning of the experiment for the item FLPLIGRVLSGIL-NH2 [Temporin A, reference compound]
95
